B1: HDV Ribozyme (parent)
chain: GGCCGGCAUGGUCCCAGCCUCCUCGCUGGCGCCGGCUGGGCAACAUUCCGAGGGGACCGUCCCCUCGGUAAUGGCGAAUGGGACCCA

variants of: B1; test: self-cleavage, relative activity (ratio to wild type); higher = more cleavage; co-transcriptional
Would you mind labelling by self-cleavage? At or over 0.2 is Fulfilled, under is Not fulfilled.

# example entries with known answers
mutation string	answer label
C24G C49G	Not fulfilled
C26U C58A	Fulfilled
A51U G68C	Fulfilled
G17U C63G	Fulfilled
C44U C63A	Fulfilled
C30A C84A	Fulfilled
G11U G54C	Fulfilled
C44A G52A	Fulfilled
C3U U12G	Fulfilled
C13U G81U	Not fulfilled

In: Check this variant for self-cleavage at or above 0.2: G2U U60A
Out: Not fulfilled

In: Check this variant for self-cleavage at or above 0.2: C75U U79A
Out: Not fulfilled

In: Check this variant for self-cleavage at or above 0.2: C66G U72C
Out: Fulfilled

Where these numbers come from: the RNAGym collection of RNA variant scans (doi:10.7554/elife.80360)
